# Measured on: mitochondrial Complex I (Bos taurus, UniProt P03887+P17694+P42026)
# Assay info: biochemical
# Condition summary: mitochondrial electron transport chain
Metric: IC50

Prompt: Give reported IC50 value for COc1ccc(C2SSC34CC5(O)C(Cl)C=CC(O)C5ON3C(=O)C2NC4=O)c(O)c1OC (stereo not shown) [Compound 1, DC1149B]
Response: > 30 µM

---

# Measured on: mitochondrial Complex IV (Bos taurus, UniProt P00396+P68530)
# Assay info: Mito Check Complex Activity Assay Kit, complex IV
# Condition summary: mitochondrial electron transport chain
Metric: IC50

Prompt: Report value only: IC50, mitochondrial Complex IV (Bos taurus, UniProt P00396+P68530), COc1ccc(C2SSC34CC5(O)C(Cl)C=CC(O)C5ON3C(=O)C2NC4=O)c(O)c1OC (stereo not shown) [Compound 1, DC1149B]
Response: > 30 µM

Source listed as paper PMC7946679.
